Here the recorded pEC50 is given for each entry.
target: mAChR M1 (UniProt P11229); test: mAChR M1 cell-based functional assay (calcium mobilization, potentiation of EC20 acetylcholine response); conditions: CHO-K1 cells expressing mAChR M1; increase in EC20 acetylcholine response; >10 μM estimated where no plateau in the curve
Note: pEC50 values are expressed as the negative base-10 logarithm of concentration in M.

Exam item: Quick one: pEC50 of CN1CCC2(CC1)C(=O)N(Cc1c(F)cc(-c3ccc4c(c3)CC(=O)N4)cc1F)c1ccccc12 ?
Marked response: 5.18

Exam item: Quick one: pEC50 of Cn1cc(-c2ccc(CN3C(=O)C4(CCN(CCF)C4)c4ccccc43)c(F)c2)cn1 (stereo not drawn) ?
Marked response: 5.49

Exam item: What value of measured pEC50 is listed for Cn1cc(-c2ccc(CN3C(=O)C4(OCCO4)c4ccccc43)c(F)c2)cn1 ?
Marked response: 5.49

Exam item: Which pEC50 value is on record for Cn1cc(-c2ccc(CN3C(=O)C4(CCCO4)c4ccccc43)cc2)cn1 (stereo not drawn) ?
Marked response: 5.11

Exam item: Need pEC50, item CN1CCC(N2CCC3(C2)C(=O)N(Cc2ccc(-c4cnn(C)c4)cc2F)c2ccccc23)CC1 (stereo not drawn)
Marked response: 5.46

Exam item: Entry Cc1nn(C)cc1-c1ccc(CN2C(=O)C3(CCN(C4CCCC4)C3)c3ccccc32)c(F)c1 (stereo not drawn) : reported pEC50 = ?
Marked response: 5.43

Exam item: Consider the compound CN1CCC(N2CCC3(CC2)C(=O)N(Cc2ccc(-c4cnn(C)c4)cc2F)c2ccccc23)C1 (stereo not drawn) and give its measured pEC50.
Marked response: 5.33

Exam item: Quick one: pEC50 for Cn1cc(-c2ccc(CN3C(=O)C4(CCN(C5CCOC5)C4)c4ccccc43)c(F)c2)cn1 (stereo not drawn) ?
Marked response: 5.48

Exam item: So what's the measured pEC50 for this one? Cn1cc(-c2ccc(CN3C(=O)C4(CCN(C(=O)C5CC5)C4)c4ccccc43)c(F)c2)cn1 (stereo not drawn)
Marked response: 5.31

Exam item: Find the recorded pEC50 belonging to Cn1cc(-c2ccc(CN3C(=O)C4(CCN(C5CCSC5)CC4)c4ccccc43)c(F)c2)cn1 (stereo not drawn) and report it.
Marked response: 5.31

---

molecular target: UniProtKB P11229; assay: mAChR M1 cell-based functional assay (calcium mobilization, potentiation of EC20 acetylcholine response); details: % ACh maximum at 30 μM
The following molecules are listed with their measured Emax values.
Report only the number, with the unit % understood.

molecule | target_entity | Emax (%)
Cn1cc(-c2ccc(CN3C(=O)C4(CCN(C5CCCCC5F)CC4)c4ccccc43)c(F)c2)cn1 (stereo not shown) [Compound B9] | UniProtKB P11229 | 32
Cn1cc(-c2ccc(CN3C(=O)C4(CCN(C5CCSC5)CC4)c4ccccc43)c(F)c2)cn1 (stereo not shown) [Compound B42] | UniProtKB P11229 | 51
Cn1cc(-c2ccc(CN3C(=O)C4(CCN(C5COC5)C4)c4ccccc43)c(F)c2)cn1 (stereo not shown) [Compound B28] | UniProtKB P11229 | 57

Exam item: Record CCN1CCC2(C1)C(=O)N(Cc1ccc(-c3cnn(C)c3)cc1F)c1ccccc12 (stereo not shown) [Compound B24] : what is its Emax with UniProtKB P11229?
Marked response: 65
